# EXPERIMENTAL TARGET: Fc–Evasin-4 (Rhipicephalus sanguineus)
# EXPERIMENT NOTES: SPR
OUTCOME MEASURE: pKd
Please report pKd as the negative decimal logarithm of the molar concentration, giving only the number.

Known results for binders:
CCL18 (ligand) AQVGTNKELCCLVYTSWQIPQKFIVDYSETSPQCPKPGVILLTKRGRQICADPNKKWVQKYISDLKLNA    10.08
CCL23 (ligand) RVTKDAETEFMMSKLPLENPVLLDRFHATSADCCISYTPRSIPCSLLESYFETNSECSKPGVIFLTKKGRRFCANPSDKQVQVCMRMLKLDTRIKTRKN    9.91
CCL15 (ligand) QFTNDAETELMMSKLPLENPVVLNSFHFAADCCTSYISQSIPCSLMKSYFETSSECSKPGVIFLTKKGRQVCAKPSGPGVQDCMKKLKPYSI    10.40
CCL1 (ligand) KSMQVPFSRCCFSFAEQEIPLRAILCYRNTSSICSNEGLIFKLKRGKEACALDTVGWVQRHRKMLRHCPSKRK    9.56

Here is another binder to look at.
### Prompt Identify measured pKd associated with CCL24 (ligand) VVIPSPCCMFFVSKRIPENRVVSYQLSSRSTCLKAGVIFTTKKGQQFCGDPKQEWVQRYMKNLDAKQKKASPRARAVAVKGPVQRYPGNQTTC
### Response 8.32
